- Test system: U251 CNS
- measurement-description: NCI-60 one-dose screen, 48 h (100 = growth as untreated, 0 = no growth, -100 = all killed)
- condition-context: 10 µM unless noted
Compounds without any hit were thinned out: in the full panel of roughly 83,000, 20% have a hit.
endpoint: growth (%)
Quick reminder: number only, in %, skip the unit.

See these solved cases before continuing.
C[C@]12CCc3sc(Nc4ccc(O)cc4)nc3C1=CC[C@@H]1[C@@H]2CC[C@]2(C)C(=O)CC[C@@H]12    19.5
c1ccc(CCN2CCCCC2)nc1    107
C#Cc1cccc(Nc2nc(Cl)nc3cc(NC(=O)CF)ccc23)c1    79.3

Given the molecule `N#CC(C#N)=Cc1cccc(F)c1` and test system U251 CNS, the measured growth is 103

Given the molecule `Oc1ccccc1C=NCCN=Cc1ccccc1O` and test system U251 CNS, the measured growth is 91.6

Given the molecule `Cc1cc(N)ccc1N` and test system U251 CNS, the measured growth is 93.2

Given the molecule `N#CCC(=O)c1ccccc1` and test system U251 CNS, the measured growth is 101

Given the molecule `COc1cc(-c2ccc(N)c(OC)c2)ccc1N` and test system U251 CNS, the measured growth is 99.2

Given the molecule `OCCNC1CCCCC1` and test system U251 CNS, the measured growth is 106

Given the molecule `C[C@]12C[C@H](c3ccoc3)OC(=O)[C@H]1CC[C@@]1(C)[C@@H]2[C@H]2C=C[C@]1(O)C(=O)O2` and test system U251 CNS, the measured growth is 97.8

---

- Test system: CAKI-1 renal
- measurement-description: NCI-60 one-dose screen, 48 h (100 = growth as untreated, 0 = no growth, -100 = all killed)
- condition-context: 10 µM unless noted
This is part of a sample that, as a whole, favours compounds with a hit. Of some 83,000 tested, about 20% had one in any assay.
Let's look at some compounds and their measured growth.
Quick reminder: number only, in %, skip the unit.

See these solved cases before continuing.
CCCC(C)SP(=S)(SC(C)CCC)SC(C)CCC (stereo not given)    104
CC12CCC3C(CCC4CC(O)CCC43C)C1CCC2=O (stereo not given)    81.5
CC1=C([Te]c2ccccc2)C(=O)c2ccccc2C1=O    -46.5
C[N+]12CCC34C5=CC(=O)C(=O)C=C5[N+]5(C)C(=O)CC6OCC=C(C1)C(CC32)C6C45 (stereo not given)    116
CCC1(CCSC#N)C(=O)NC(=O)NC1=O    98.7

GET /value?item= NC1CN2CCC1CC2 (stereo not given) &field=growth returns 86.7

GET /value?item= `Cc1ccc(C(=O)O[C@H](C(=O)O)[C@H](OC(=O)c2ccc(C)cc2)C(=O)O)cc1` &field=growth returns 102

---

- System: HT29 colon
- measurement-description: NCI-60 one-dose screen, 48 h
- condition-context: 10 µM unless noted
The panel holds about 83,000 compounds, 20% with a hit somewhere; the sample as a whole holds those more often. Activity calls are given as the source filed them. Rule for the calls: active = growth percent below 10; inactive = the rest.
Pick from y (active), n (inactive) when you respond.

NC(N)=NC(N)=Nc1ccc(Cl)cc1    n
C=CC[PH+](c1ccccc1)c1ccccc1.C=CC[PH+](c1ccccc1)c1ccccc1.[Pt+2].[S-]c1ncccn1.[S-]c1ncccn1    y
C/C(=C(\c1ccc(OCCN2CCOCC2)cc1)c1ccc(OC(=O)Cc2ccccc2)cc1)c1ccc(Cl)cc1    n
COc1cc(/C=C\[N+](=O)[O-])ccc1OCc1ccccc1    y
Cc1ccc(C(=O)O[C@H](C(=O)O)[C@H](OC(=O)c2ccc(C)cc2)C(=O)O)cc1    n

Test call for this compound, please: `O=C1C=C(N2CC2)c2ccccc2C1=O`
n

Test call for this compound, please: `O=[N+]([O-])c1c(Cl)cc(Cl)c([N+](=O)[O-])c1Cl`
n

Test call for this compound, please: `N#Cc1ccc(Cl)cc1`
n

Test call for this compound, please: CC(Oc1ccc(-c2ccccc2)cc1)C(=O)O (centres undefined)
n

Test call for this compound, please: `Oc1cc(N2CC2)c(O)cc1N1CC1`
y

Test call for this compound, please: `O=C(O)c1cc([N+](=O)[O-])cc([N+](=O)[O-])c1`
n

Test call for this compound, please: COc1c(O)cc2c(c1OC)-c1ccc(SC)c(=O)cc1C(NC(C)=O)CC2 (centres undefined)
y

Test call for this compound, please: `CSc1cc(/C=C(\C)[C@@H]2C[C@@H]3O[C@]3(C)CCC[C@H](C)[C@H](O)[C@@H](C)C(=O)C(C)(C)[C@@H](O)CC(=O)O2)n(CCNC(=O)OC(C)(C)C)n1`
n
